- Tested on: HIV-1 NL4-3 strain
- method description: Evaluation of antiviral activity: acute infection system of MT-4 cell with HIV-1 NL4-3 strain
- Assay type: cell-based
- run conditions: Human immunodeficiency virus 1, NL43, MT4, 120 h, read-out: antiviral activity (EC50), MT-4 cells infected with HIV-1 NL4-3 strain (MOI 0.05), cultured 5 days, Cell Titer-Glo
pEC50: −log10 of the molar value. Counter-ions that a name gives are not always drawn.
Given measured pEC50, output true if it is greater than or equal to 8 and false if not.

Answered examples (6):
- CCN1C(=O)c2c(O)c(=O)c(C(=O)NCc3cccc(Cl)c3F)cn2C[C@]12C[C@H]2CO [Example T46, hydrochloride]: true
- CCOc1ccc(CNC(=O)c2cn3c(c(O)c2=O)C(=O)N(C)C[C@@]32C[C@@H]2COC)c(F)c1Cl [Example T37, hydrochloride]: false
- CCN1C(=O)c2c(O)c(=O)c(C(=O)NCc3cccc(Cl)c3F)cn2C[C@@]12C[C@@H]2CO [Example T44, hydrochloride]: true
- CC(C)N1C[C@]2(C[C@H]2CO)n2cc(C(=O)NCc3cccc(Cl)c3F)c(=O)c(O)c2C1=O [Example T5, hydrochloride]: true
- CC(C)N1C[C@@]2(C[C@@H]2C(=O)N(C)C)n2cc(C(=O)NCc3cccc(Cl)c3F)c(=O)c(O)c2C1=O [Example T13, hydrochloride]: true
- CCN1C[C@]2(C[C@H]2CO)n2cc(C(=O)NCc3cccc(Cl)c3F)c(=O)c(O)c2C1=O [Example T17, hydrochloride]: true

Could you now look at the following compound, please?
State whether the measured pEC50 reaches 8, counting equality as reaching it, for CCN1C(=O)c2c(O)c(=O)c(C(=O)NCc3ccc(OC)c(Cl)c3F)cn2C[C@@]12C[C@@H]2CO [Example T48, hydrochloride] false
